The values you see were collected from ChEMBL document CHEMBL1177718.

In this section, each of the compounds is paired with its reported remaining at 0.5 h, 1 ug/ml.
- Species on record: Homo sapiens
- protocol details: Metabolic stability in human plasma assessed as compound remaining at 1 ug/ml after 30 mins

compound	remaining at 0.5 h, 1 ug/ml / %
CC(OC(=O)[C@@H](NP(=O)(OC[C@H]1O[C@@H](n2cnc3c(=O)[nH]c(N)nc32)[C@](C)(O)[C@@H]1O)Oc1cccc2ccccc12)C(C)C)c1ccccc1 (stereo partly drawn)	97
Cc1ccccc1COC(=O)[C@@H](NP(=O)(OC[C@H]1O[C@@H](n2cnc3c(=O)[nH]c(N)nc32)[C@](C)(O)[C@@H]1O)Oc1cccc2ccccc12)C(C)C (stereo partly drawn)	100
CC(C)[C@@H](NP(=O)(OC[C@H]1O[C@@H](n2cnc3c(=O)[nH]c(N)nc32)[C@](C)(O)[C@@H]1O)Oc1cccc2ccccc12)C(=O)OCc1ccccc1 (stereo partly drawn)	70

====

- protocol details: Cytotoxicity against human HuH7 cells after 72 hrs by celltiter-glo assay
- Assay type: cell-based, Huh-7
Catalogue of molecules with associated CC50 at 72 h

molecule	CC50 at 72 h
C[C@@]1(O)[C@H](O)[C@@H](COP(=O)(N[C@@H](Cc2ccccc2)C(=O)OCc2ccccc2)Oc2cccc3ccccc23)O[C@H]1n1cnc2c(=O)[nH]c(N)nc21 (stereo partly drawn)	> 100 µM
CC[C@H](C)[C@H](NP(=O)(OC[C@H]1O[C@@H](n2cnc3c(=O)[nH]c(N)nc32)[C@](C)(O)[C@@H]1O)Oc1cccc2ccccc12)C(=O)OCc1ccccc1 (stereo partly drawn)	> 50 µM
CC(C)C[C@H](NP(=O)(OC[C@H]1O[C@@H](n2cnc3c(=O)[nH]c(N)nc32)[C@](C)(O)[C@@H]1O)Oc1cccc2ccccc12)C(=O)OCc1ccccc1 (stereo partly drawn)	> 50 µM
C[C@H](NP(=O)(OC[C@H]1O[C@@H](n2cnc3c(=O)[nH]c(N)nc32)[C@](C)(O)[C@@H]1O)Oc1cccc2ccccc12)C(=O)OC1CCCCC1 (stereo partly drawn)	> 100 µM
CC(C)[C@H](NP(=O)(OC[C@H]1O[C@@H](n2cnc3c(=O)[nH]c(N)nc32)[C@](C)(O)[C@@H]1O)Oc1cccc2ccccc12)C(=O)OCCc1ccccc1 (stereo partly drawn)	> 100 µM
C[C@H](NP(=O)(OC[C@H]1O[C@@H](n2cnc3c(=O)[nH]c(N)nc32)[C@](C)(O)[C@@H]1O)Oc1cccc2ccccc12)C(=O)OCC(C)(C)C (stereo partly drawn)	> 100 µM
CC(C)[C@@H](NP(=O)(OC[C@H]1O[C@@H](n2cnc3c(=O)[nH]c(N)nc32)[C@](C)(O)[C@@H]1O)Oc1cccc2ccccc12)C(=O)OCc1ccccc1 (stereo partly drawn)	> 100 µM
C[C@@]1(O)[C@H](O)[C@@H](CO)O[C@H]1n1cnc2c(=O)[nH]c(N)nc21	> 100 µM

====

- protocol details: Cytotoxicity against rat IEC6 cells after 72 hrs by celltiter-glo assay
- Assay type: cell-based
measurement type: CC50 at 72 h

compound	result
C[C@H](NP(=O)(OC[C@H]1O[C@@H](n2cnc3c(=O)[nH]c(N)nc32)[C@](C)(O)[C@@H]1O)Oc1cccc2ccccc12)C(=O)O[C@@H](C)c1ccccc1 (stereo partly specified)	> 100 µM

====

remaining at 1 h, 10 µM values for the compounds below.
- protocol details: Metabolic stability in human liver S9 fraction assessed as compound remaining at 10 uM after 60 mins by HPLC analysis in absence of NADP
- Format: ADME, subcellular
- condition notes: read-out: Stability

compound	remaining at 1 h, 10 µM (%)
C[C@H](NP(=O)(OC[C@H]1O[C@@H](n2cnc3c(=O)[nH]c(N)nc32)[C@](C)(O)[C@@H]1O)Oc1cccc2ccccc12)C(=O)OCC(C)(C)C (some centres not stated)	59
CC(C)OC(=O)[C@H](C)NP(=O)(OC[C@H]1O[C@@H](n2cnc3c(=O)[nH]c(N)nc32)[C@](C)(O)[C@@H]1O)Oc1cccc2ccccc12 (some centres not stated)	41
CC[C@H](C)[C@H](NP(=O)(OC[C@H]1O[C@@H](n2cnc3c(=O)[nH]c(N)nc32)[C@](C)(O)[C@@H]1O)Oc1cccc2ccccc12)C(=O)OCc1ccccc1 (some centres not stated)	83
CC(C)[C@H](NP(=O)(OC[C@H]1O[C@@H](n2cnc3c(=O)[nH]c(N)nc32)[C@](C)(O)[C@@H]1O)Oc1cccc2ccccc12)C(=O)OCc1ccccc1 (some centres not stated)	78
COC(=O)[C@H](C)NP(=O)(OC[C@H]1O[C@@H](n2cnc3c(=O)[nH]c(N)nc32)[C@](C)(O)[C@@H]1O)Oc1cccc2ccccc12 (some centres not stated)	40
C[C@H](NP(=O)(OC[C@H]1O[C@@H](n2cnc3c(=O)[nH]c(N)nc32)[C@](C)(O)[C@@H]1O)Oc1ccc2ccccc2c1)C(=O)OCc1ccccc1 (some centres not stated)	29
COC(=O)[C@H](CCSC)NP(=O)(OC[C@H]1O[C@@H](n2cnc3c(=O)[nH]c(N)nc32)[C@](C)(O)[C@@H]1O)Oc1cccc2ccccc12 (some centres not stated)	14

====

Measured remaining at 4 h, 1 ug/ml, listed per entry for reference.
- Species on record: Homo sapiens
- protocol details: Metabolic stability in human plasma assessed as compound remaining at 1 ug/ml after 4 hrs

molecule	remaining at 4 h, 1 ug/ml / %
CC(C)[C@H](NP(=O)(OC[C@H]1O[C@@H](n2cnc3c(=O)[nH]c(N)nc32)[C@](C)(O)[C@@H]1O)Oc1ccc2ccccc2c1)C(=O)OCc1ccccc1 (stereo partly drawn)	100
CCCCCOC(=O)[C@H](C)NP(=O)(OC[C@H]1O[C@@H](n2cnc3c(=O)[nH]c(N)nc32)[C@](C)(O)[C@@H]1O)Oc1cccc2ccccc12 (stereo partly drawn)	96
CCCCOC(=O)[C@H](C)NP(=O)(OC[C@H]1O[C@@H](n2cnc3c(=O)[nH]c(N)nc32)[C@](C)(O)[C@@H]1O)Oc1cccc2ccccc12 (stereo partly drawn)	97
CC(OC(=O)[C@H](C)NP(=O)(OC[C@H]1O[C@@H](n2cnc3c(=O)[nH]c(N)nc32)[C@](C)(O)[C@@H]1O)Oc1cccc2ccccc12)c1ccccc1 (mixture of isomers)	86
CC(C)(NP(=O)(OC[C@H]1O[C@@H](n2cnc3c(=O)[nH]c(N)nc32)[C@](C)(O)[C@@H]1O)Oc1cccc2ccccc12)C(=O)OCc1ccccc1 (stereo partly drawn)	41
C[C@H](NP(=O)(OC[C@H]1O[C@@H](n2cnc3c(=O)[nH]c(N)nc32)[C@](C)(O)[C@@H]1O)Oc1cccc2ccccc12)C(=O)O[C@@H](C)c1ccccc1 (stereo partly drawn)	99
C[C@H](NP(=O)(OC[C@H]1O[C@@H](n2cnc3c(=O)[nH]c(N)nc32)[C@](C)(O)[C@@H]1O)Oc1cccc2ccccc12)C(=O)OC1CCCCC1 (stereo partly drawn)	100
CC(C)[C@@H](NP(=O)(OC[C@H]1O[C@@H](n2cnc3c(=O)[nH]c(N)nc32)[C@](C)(O)[C@@H]1O)Oc1cccc2ccccc12)C(=O)OCc1ccccc1 (stereo partly drawn)	82

====

- protocol details: Cmax in ICR mouse plasma at 50 mg/kg, po by LC-MS/MS analysis
- Assay type: ADME, organism-based
- Parameters: dose 50 mg/kg, route oral
Cut-off 400 ng/mL on Cmax, inclusive. At or above means T; below means F.

compound	assigned category
CC(C)[C@H](NP(=O)(OC[C@H]1O[C@@H](n2cnc3c(=O)[nH]c(N)nc32)[C@](C)(O)[C@@H]1O)Oc1cccc2ccccc12)C(=O)OC1CCCCC1 (stereo partly specified)	F
CC(C)[C@H](NP(=O)(OC[C@H]1O[C@@H](n2cnc3c(=O)[nH]c(N)nc32)[C@](C)(O)[C@@H]1O)Oc1cccc2ccccc12)C(=O)OCc1ccc(Cl)cc1 (stereo partly specified)	F
C[C@@]1(O)[C@H](O)[C@@H](CO)O[C@H]1n1cnc2c(=O)[nH]c(N)nc21 [2'-B-METHYL-GUANOSINE]	T
CC(C)[C@H](NP(=O)(OC[C@H]1O[C@@H](n2cnc3c(=O)[nH]c(N)nc32)[C@](C)(O)[C@@H]1O)Oc1cccc2ccccc12)C(=O)OCc1ccccc1 (stereo partly specified)	T
CC(C)[C@H](NP(=O)(OC[C@H]1O[C@@H](n2cnc3c(=O)[nH]c(N)nc32)[C@](C)(O)[C@@H]1O)Oc1cccc2ccccc12)C(=O)OCC(C)(C)C (stereo partly specified)	T

====

Parameter: CC50 at 72 h. Scope: all listed entries.
- protocol details: Cytotoxicity against human HuH7 cells after 72 hrs by celltiter-glo assay
- Format: cell-based, Huh-7
measurement type: CC50 at 72 h

molecule	result
CC(C)[C@H](NP(=O)(OC[C@H]1O[C@@H](n2cnc3c(=O)[nH]c(N)nc32)[C@](C)(O)[C@@H]1O)Oc1cccc2ccccc12)C(=O)OCc1ccccc1 (stereo partly specified)	> 100 µM
C[C@H](NP(=O)(OC[C@H]1O[C@@H](n2cnc3c(=O)[nH]c(N)nc32)[C@](C)(O)[C@@H]1O)Oc1cccc2ccccc12)C(=O)O[C@@H](C)c1ccccc1 (stereo partly specified)	> 100 µM
C[C@H](NP(=O)(OC[C@H]1O[C@@H](n2cnc3c(=O)[nH]c(N)nc32)[C@](C)(O)[C@@H]1O)Oc1cccc2ccccc12)C(=O)OC1CCCC1 (stereo partly specified)	> 100 µM
COC(=O)[C@H](C)NP(=O)(OC[C@H]1O[C@@H](n2cnc3c(=O)[nH]c(N)nc32)[C@](C)(O)[C@@H]1O)Oc1cccc2ccccc12 (stereo partly specified)	> 50 µM
CC(C)[C@H](NP(=O)(OC[C@H]1O[C@@H](n2cnc3c(=O)[nH]c(N)nc32)[C@](C)(O)[C@@H]1O)Oc1ccc2ccccc2c1)C(=O)OCc1ccccc1 (stereo partly specified)	> 100 µM
C[C@H](NP(=O)(OC[C@H]1O[C@@H](n2cnc3c(=O)[nH]c(N)nc32)[C@](C)(O)[C@@H]1O)Oc1cccc2ccccc12)C(=O)OCCCc1ccccc1 (stereo partly specified)	> 100 µM
